Reference source: ChEMBL document CHEMBL5724914

Conditions: human gut metagenome, 24 h, 2 µM; also: call rule not given here
observation_type: Bacterial Biotransformation

Here are 5 compounds together with their reported answers.
compound=C=CCN1CC[C@]23c4c5ccc(O)c4O[C@H]2C(=O)CC[C@@]3(O)[C@H]1C5 assay_value="Compound metabolized"
compound=c1ccc([C@H]2CN3CCSC3=N2)cc1 assay_value="Compound metabolized"
compound="CC(C)OC(=O)C(C)(C)Oc1ccc(C(=O)c2ccc(Cl)cc2)cc1 [FENOFIBRATE]" assay_value="Compound NOT metabolized"
compound="CCC(COC(=O)c1cc(OC)c(OC)c(OC)c1)(c1ccccc1)N(C)C.O=C(O)/C=C\\C(=O)O (centres undefined)" assay_value="Compound NOT metabolized"
compound="CN1CCOC(c2ccccc2)c2ccccc2C1 (centres undefined)" assay_value="Compound NOT metabolized"

So for CN(C(=O)CN(CCO)CC(=O)N(C)C(C)(C)Cc1ccccc1)C(C)(C)Cc1ccccc1 , the logged Bacterial Biotransformation turned out to be Compound metabolized

Data point: CCCc1nn(C)c2c(=O)[nH]c(-c3cc(S(=O)(=O)N4CCN(C)CC4)ccc3OCC)nc12.O=C(O)CC(O)(CC(=O)O)C(=O)O [SILDENAFIL CITRATE] ; Bacterial Biotransformation = Compound NOT metabolized

In plain terms, NC12CC3CC(CC(C3)C1)C2 has a documented Bacterial Biotransformation of Compound NOT metabolized

* * *

Details: human gut metagenome, 24 h, 2 µM
observation_type: Bacterial Biotransformation

Example entries and their recorded answers appear below.
compound="NS(=O)(=O)c1cc2c(cc1Cl)N=C(CSCc1ccccc1)NS2(=O)=O [BENZTHIAZIDE]" assay_value="Compound NOT metabolized"
compound=CCCCCOC(=O)Nc1nc(=O)n([C@@H]2O[C@H](C)[C@@H](O)[C@H]2O)cc1F assay_value="Compound metabolized"
compound="CC(C)NCC(O)c1ccc(NS(C)(=O)=O)cc1 (configuration not stated)" assay_value="Compound NOT metabolized"
compound="CN1C(=O)CCS(=O)(=O)C1c1ccc(Cl)cc1 (configuration not stated)" assay_value="Compound NOT metabolized"
compound="CC[C@@H](CO)NC(=O)[C@@H]1C=C2c3cccc4c3c(cn4C)C[C@H]2N(C)C1.O=C(O)/C=C\\C(=O)O [METHYSERGIDE MALEATE]" assay_value="Compound NOT metabolized"

response.value for COc1ccc2[nH]c([S+]([O-])Cc3ncc(C)c(OC)c3C)nc2n1 (configuration not stated) (field: Bacterial Biotransformation) = Compound metabolized

In plain terms, C[C@@H](CO)NC(=O)[C@@H]1C=C2c3cccc4[nH]cc(c34)C[C@H]2N(C)C1.O=C(O)/C=C\C(=O)O [ERGONOVINE MALEATE] has a documented Bacterial Biotransformation of Compound NOT metabolized

Record COc1cc2nc(N3CCN(C(=O)c4ccco4)CC3)nc(N)c2cc1OC . Reported Bacterial Biotransformation: Compound NOT metabolized

* * *

Conditions: human gut metagenome, 24 h, 2 µM
observation_type: Bacterial Biotransformation

molecule="CC(CN1c2ccccc2Sc2ccccc21)N(C)C (stereo not given) [PROMETHAZINE]" observation_type="Bacterial Biotransformation" assay_value="Compound metabolized"
molecule="CCCCCCOC(=O)/N=C(/N)c1ccc(NCc2nc3cc(C(=O)N(CCC(=O)OCC)c4ccccn4)ccc3n2C)cc1.CS(=O)(=O)O [DABIGATRAN ETEXILATE MESYLATE]" observation_type="Bacterial Biotransformation" assay_value="Compound NOT metabolized"
molecule="CNC(=C[N+](=O)[O-])NCCSCc1csc(CN(C)C)n1 [NIZATIDINE]" observation_type="Bacterial Biotransformation" assay_value="Compound metabolized"
molecule=Cc1cc2c(cc1S(N)(=O)=O)S(=O)(=O)CCC2 observation_type="Bacterial Biotransformation" assay_value="Compound NOT metabolized"

API: the following record is the query input.
// Bacterial Biotransformation value for CCc1nc(N)nc(N)c1-c1ccc(Cl)cc1 [PYRIMETHAMINE] : Compound metabolized

* * *

Conditions: human gut metagenome, 24 h, 2 µM
observation_type: Bacterial Biotransformation

compound="Clc1ccc(Cn2c(CN3CCCC3)nc3ccccc32)cc1 [CLEMIZOLE]" observation_type="Bacterial Biotransformation" assay_value="Compound NOT metabolized"
compound="CC(Oc1c(Cl)cccc1Cl)C1=NCCN1 (stereo unspecified) [LOFEXIDINE]" observation_type="Bacterial Biotransformation" assay_value="Compound NOT metabolized"
compound="O=c1n(CCCN2CCN(c3cccc(Cl)c3)CC2)nc2ccccn12 [TRAZODONE]" observation_type="Bacterial Biotransformation" assay_value="Compound NOT metabolized"
compound="OCCOCCN1CCN(C2=Nc3ccccc3Sc3ccccc32)CC1 [QUETIAPINE]" observation_type="Bacterial Biotransformation" assay_value="Compound NOT metabolized"

COc1ccc2[nH]c([S+]([O-])Cc3ncc(C)c(OC)c3C)nc2n1 (stereo unspecified) [TENATOPRAZOLE] yielded Bacterial Biotransformation of Compound NOT metabolized

* * *

Settings: human gut metagenome, 24 h, 2 µM
observation_type: Bacterial Biotransformation

compound="CC(C)NCC(O)c1ccc(NS(C)(=O)=O)cc1 (stereo not given)" observation_type="Bacterial Biotransformation" assay_value="Compound NOT metabolized"
compound="CCN(CC)CCOCCOC(=O)C1(c2ccccc2)CCCC1.O=C(O)CC(O)(CC(=O)O)C(=O)O [CARBETAPENTANE CITRATE]" observation_type="Bacterial Biotransformation" assay_value="Compound metabolized"
compound="COc1cc2nc(N(C)CCCNC(=O)C3CCCO3)nc(N)c2cc1OC (stereo not given)" observation_type="Bacterial Biotransformation" assay_value="Compound metabolized"
compound=O=C(CCCN1CCC(O)(c2ccc(Cl)cc2)CC1)c1ccc(F)cc1 observation_type="Bacterial Biotransformation" assay_value="Compound metabolized"
compound=CCC(=O)NCC[C@@H]1CCc2ccc3c(c21)CCO3 observation_type="Bacterial Biotransformation" assay_value="Compound metabolized"
compound="C[C@@H](CO)NC(=O)[C@@H]1C=C2c3cccc4[nH]cc(c34)C[C@H]2N(C)C1.O=C(O)/C=C\\C(=O)O [ERGONOVINE MALEATE]" observation_type="Bacterial Biotransformation" assay_value="Compound metabolized"
compound=COC(=O)Nc1nc2ccc(C(=O)c3ccccc3)cc2[nH]1 observation_type="Bacterial Biotransformation" assay_value="Compound metabolized"
compound=CCOC(=O)[C@H](CCc1ccccc1)N[C@H]1CCc2ccccc2N(CC(=O)O)C1=O observation_type="Bacterial Biotransformation" assay_value="Compound metabolized"
compound="OC(CCN1CCCCC1)(c1ccccc1)C1CC2C=CC1C2 (stereo not given)" observation_type="Bacterial Biotransformation" assay_value="Compound NOT metabolized"
compound=CNC(=C[N+](=O)[O-])NCCSCc1csc(CN(C)C)n1 observation_type="Bacterial Biotransformation" assay_value="Compound metabolized"

Bacterial Biotransformation recorded for this compound, Cc1nc2n(c(=O)c1CCN1CCC(c3noc4cc(F)ccc34)CC1)CCCC2O (stereo not given) , is Compound metabolized

Bacterial Biotransformation reported for this compound O=c1[nH]c2ccccc2n1C1CCN(CCCC(c2ccc(F)cc2)c2ccc(F)cc2)CC1 [PIMOZIDE] : Compound metabolized

Lookup result for CC(C(=O)O)c1ccc2c(c1)Cc1cccnc1O2 (stereo not given) ; measured Bacterial Biotransformation: Compound metabolized

Bacterial Biotransformation measured on COc1ccccc1OCC(O)CN1CCN(CC(=O)Nc2c(C)cccc2C)CC1 (stereo not given) = Compound NOT metabolized

The reported value for CNCCC(Oc1ccc(C(F)(F)F)cc1)c1ccccc1 (stereo not given) in terms of Bacterial Biotransformation is Compound NOT metabolized

Bacterial Biotransformation in this record for CCCC(=O)Nc1ccc(OCC(O)CNC(C)C)c(C(C)=O)c1 (stereo not given) : Compound metabolized

Consider CO[C@]12C[C@@H](COC(=O)c3cncc(Br)c3)CN(C)[C@@H]1Cc1cn(C)c3cccc2c13 . Its measured Bacterial Biotransformation is Compound NOT metabolized

// Bacterial Biotransformation value for Cc1ccc(S(=O)(=O)NC(=O)NN2CC3CCCC3C2)cc1 (stereo not given) [GLICLAZIDE] : Compound metabolized

In plain terms, Cc1ccc(-c2nc3ccc(C)cn3c2CC(=O)N(C)C)cc1 has a documented Bacterial Biotransformation of Compound NOT metabolized

In plain terms, COc1ccc2c(c1OC)C(=O)O[C@@H]2[C@H]1c2c(cc3c(c2OC)OCO3)CCN1C has a documented Bacterial Biotransformation of Compound metabolized

* * *

Assay: The drug is tested on WLS-038 corresponding to human gut metagenome with ENA study accession number: PRJEB37062 and ENA sample accession number: ERS12561745 for biotransformation under anaerobic condition. The drug concentrations were measured over 9 timepoints collected between 0 and 24 hours of incubation by liquid-chromatography-coupled mass spectrometry (LC–MS)
Settings: 2 µM
observation_type: Bacterial Biotransformation

compound="OC(CCN1CCCCC1)(c1ccccc1)C1CCCCC1 (centres undefined)" assay_value="Compound NOT metabolized"
compound="CCC1(c2ccc(N)cc2)CCC(=O)NC1=O (centres undefined) [AMINOGLUTETHIMIDE]" assay_value="Compound NOT metabolized"
compound="NS(=O)(=O)c1cc2c(cc1Cl)N=C(CSCc1ccccc1)NS2(=O)=O [BENZTHIAZIDE]" assay_value="Compound NOT metabolized"
compound=Nc1c2c(nc3ccccc13)CCCC2 assay_value="Compound NOT metabolized"
compound="CC(C)NCC(O)COc1ccc(COCCOC(C)C)cc1.CC(C)NCC(O)COc1ccc(COCCOC(C)C)cc1.O=C(O)/C=C/C(=O)O (centres undefined) [BISOPROLOL FUMARATE]" assay_value="Compound NOT metabolized"
compound=CN1CCN(C(=O)O[C@H]2c3nccnc3C(=O)N2c2ccc(Cl)cn2)CC1 assay_value="Compound NOT metabolized"
compound="CC(O)(CS(=O)(=O)c1ccc(F)cc1)C(=O)Nc1ccc(C#N)c(C(F)(F)F)c1 (centres undefined) [BICALUTAMIDE]" assay_value="Compound NOT metabolized"
compound=CC[C@H](C)C(=O)O[C@H]1C[C@@H](C)C=C2C=C[C@H](C)[C@H](CC[C@@H]3C[C@@H](O)CC(=O)O3)[C@H]21 assay_value="Compound NOT metabolized"
compound=O=C(O)CCc1nc(-c2ccccc2)c(-c2ccccc2)o1 assay_value="Compound metabolized"
compound="CN1CCC(=C2c3ccccc3CCc3cccnc32)CC1.O=C(O)/C=C\\C(=O)O.O=C(O)/C=C\\C(=O)O [AZATADINE MALEATE]" assay_value="Compound NOT metabolized"

Short answer for CN/C(=N/CCSCc1nc[nH]c1C)NC#N : Bacterial Biotransformation was Compound NOT metabolized

Entry CCN(CC)CCNC(=O)c1cc(Cl)c(N)cc1OC [METOCLOPRAMIDE] — recorded Bacterial Biotransformation = Compound NOT metabolized

Form: compound = CN(C)CC(c1ccc(O)cc1)C1(O)CCCCC1.O=C(O)CCC(=O)O (centres undefined) [DESVENLAFAXINE SUCCINATE] ; Bacterial Biotransformation = Compound NOT metabolized

Short answer for CN(C(=O)CN(CCO)CC(=O)N(C)C(C)(C)Cc1ccccc1)C(C)(C)Cc1ccccc1 : Bacterial Biotransformation was Compound metabolized
